% of Inhibition: recorded values
# Test system: Dextran-induced edema
# Procedure text: Inhibitory activity on dextran-induced edema in rats (Experiment C)
# Assay type: in vivo
# Experimental conditions: after 3 hrs; oral 8 mg/kg
A number alone suffices; assume %.

CC(C(=O)O)c1cccc(Oc2ccc(Cl)cc2)c1 (stereo not shown); 10

Query block: What % of Inhibition value was documented for this molecule, CC(C)Cc1ccc(C(C)C(=O)O)cc1 (stereo not shown) [Ibuprofen, 2,4'-isobutylphenylpropionic acid, reference compound] ?
Result block: 9

Query block: Need % of Inhibition of CC(C(=O)O)c1cccc(Oc2ccccc2)c1 (stereo not shown) [Compound (2), reference compound] , thanks.
Result block: 1

Query block: Need % of Inhibition, item CC(C(=O)O)c1cccc(Oc2ccccc2Cl)c1 (stereo not shown)
Result block: 1

----------
# System: ARRS-induced edema
# Procedure text: Inhibitory activity on anti-rat-rabbit serum (ARRS)-induced edema in rats (Experiment D)
# Type: in vivo
# Experimental conditions: after 2 hrs; oral 8 mg/kg
Measurement name: Edema D. ± S.E.

For orientation, consider the following solved cases.
CC(C(=O)O)c1cccc(Oc2ccccc2)c1 (stereo not shown) [Compound (2), reference compound]; .634 ± .048
CC(C)Cc1ccc(C(C)C(=O)O)cc1 (stereo not shown) [Ibuprofen, 2,4'-isobutylphenylpropionic acid, reference compound]; .615 ± .062
CC(C(=O)O)c1cccc(Oc2ccccc2Cl)c1 (stereo not shown); .631 ± 7040

Now, please, on to the next compound.
Query block: Look up Edema D. ± S.E.: CC(C(=O)O)c1cccc(Oc2ccc(Cl)cc2)c1 (stereo not shown)
Result block: .649 ± .032

----------
The reader will find reported LD50 values listed item by item below.
# Procedure text: in vivo
# Experimental conditions: mouse, po
Your answer is read as mg/kg, so omit the unit and give the number.

See these solved cases before continuing.
COc1ccc2c(c1)c(CC(=O)O)c(C)n2C(=O)c1ccc(Cl)cc1 [INDOMETHACIN]; 37.5
CC(C(=O)O)c1cccc(Oc2ccccc2Cl)c1 (stereo not drawn) [Compound (5)]; 1120

Query block: Can you share its LD50? I mean this compound: CC(=O)Oc1ccccc1C(=O)O [Aspirin]
Result block: 1600

----------
The following compounds are listed with their measured % of Inhibition values.
# Test system: Kaolin-induced edema
# Procedure text: Inhibitory activity on Kaolin-induced Edema in Rats (Experiment B)
# Format: in vivo
# Experimental conditions: after 7 hrs; oral 40 mg/kg

CC(C)Cc1ccc(C(C)C(=O)O)cc1 (stereo not shown) [Ibuprofen, 2,4'-isobutylphenylpropionic acid, reference compound]; 15%

Query block: Entry CC(C(=O)O)c1cccc(Oc2ccccc2)c1 (stereo not shown) [Compound (2), reference compound] has what % of Inhibition?
Result block: 33%

Query block: I'd like to know its % of Inhibition. The compound in question is CC(C(=O)O)c1cccc(Oc2ccc(Cl)cc2)c1 (stereo not shown)
Result block: 35%

Query block: Entry CC(C(=O)O)c1cccc(Oc2ccccc2Cl)c1 (stereo not shown) : reported % of Inhibition = ?
Result block: 51%

----------
# System: ARRS-induced edema
# Procedure text: Inhibitory activity on anti-rat-rabbit serum (ARRS)-induced edema in rats (Experiment D)
# Format: in vivo
# Experimental conditions: after 3 hrs; oral 40 mg/kg
Measurement name: % of Inhibition (%)
Record the value in %, omitting the unit from your answer.

Study these solved cases before continuing.
CC(C(=O)O)c1cccc(Oc2ccc(Cl)cc2)c1 (stereo not shown); 25
CC(C(=O)O)c1cccc(Oc2ccccc2Cl)c1 (stereo not shown); 19
CC(C(=O)O)c1cccc(Oc2ccccc2)c1 (stereo not shown) [Compound (2), reference compound]; 26

Now for another entry.
Query block: Request body: readout % of Inhibition, system ARRS-induced edema, query CC(C)Cc1ccc(C(C)C(=O)O)cc1 (stereo not shown) [Ibuprofen, 2,4'-isobutylphenylpropionic acid, reference compound] . Return the value.
Result block: 27
